Entry source: ChEMBL document CHEMBL4342483

# assayRemarks: Half life in phosphate buffer at pH 7.4 and d6-DMSO (1:1) by kinetic time-course NMR method
# Assay type: physicochemical
# assayConditions: phosphate buffer and d6-DMSO (1:1)
quantityName: half-life (min)
Numeric only. Scale: min

Input line: Query (compound): CC(OC(=O)C[C@H](N)C(=O)n1ncc2cc(Br)ccc21)OC(=O)N1CCC(c2ccccc2)CC1 (stereo partly specified) ; field requested: half-life
Output line: 23.4

====

Can you tell me half-life for the items I'm about to list?
# assayRemarks: Half life in phosphate buffer and DMSO supplemented with 4% bovine serum albumin at pH 6.5 by HPLC analysis
# Assay type: physicochemical
# assayConditions: phosphate buffer and DMSO with 4% bovine serum albumin
Provide the reading as a plain figure in h.

Input line: Could you share which half-life value was measured for Cc1cc(Nc2ncc(Cl)c(Nc3ccccc3S(=O)(=O)C(C)C)n2)c(OC(C)C)cc1C1CCN(C(=O)OC(C)OC(=O)C[C@H](N)C(=O)n2ncc3c(-c4nc(N5CCOCC5)c5sc(CN6CCN(S(C)(=O)=O)CC6)cc5n4)cccc32)CC1 (stereo partly drawn) ?
Output line: 19.3

Input line: What half-life value was documented for this compound, Cc1cc(Nc2ncc(Cl)c(Nc3ccccc3S(=O)(=O)C(C)C)n2)c(OC(C)C)cc1C1CCN(C(=O)OC(C)OC(=O)[C@@H](N)CC(=O)n2ncc3c(-c4nc(N5CCOCC5)c5sc(CN6CCN(S(C)(=O)=O)CC6)cc5n4)cccc32)CC1 (stereo partly drawn) ?
Output line: 34.7

Input line: Fill blank: measured half-life of the compound Cc1cc(Nc2ncc(Cl)c(Nc3ccccc3S(=O)(=O)C(C)C)n2)c(OC(C)C)cc1C1CCN(C(=O)OC(C)OC(=O)CC(N)CC(=O)n2ncc3c(-c4nc(N5CCOCC5)c5sc(CN6CCN(S(C)(=O)=O)CC6)cc5n4)cccc32)CC1 (stereo not drawn) is ____.
Output line: 12
